- Tested on: mice
- EXPERIMENT NOTES: rotating rod test in mice (sedative/muscle relaxant properties), i.v.
- Format: in vivo, mouse
- APPLIED CONDITIONS: Mus musculus, iv, 0.5 h, minimum time 60 sec, 30 min after administration
- Experimental: The sedative/muscle relaxant properties of the compounds of formula II in accordance with the invention can be determined, for example, in the rotating rod test. Mice weighing 19-21 g are used for this test. They have free access to feed and drinking water up to 1 hour prior to the beginning of the test. […] At various points in time it is then determined whether the animals are able to remain for a minimum period on the rod (minimum period: 10 seconds, 1 minute from 5 minutes after administration). […]
The entries below come with measured ED50 values attached.
API: value field is a number in mg/kg; no unit string.

Some entries whose results are on file:
1. OCc1cn2c(n1)CN=C(c1ccccn1)c1cc(Br)ccc1-2
3
2. OCc1cn2c(n1)CN=C(c1ccccc1)c1cc(C(F)(F)F)ccc1-2
1.1
3. O=[N+]([O-])c1ccc2c(c1)C(c1ccccc1F)=NCc1nc(CO)cn1-2
0.2

Please examine the following record next.
State its ED50 on mice: OCc1cn2c(n1)CN=C(c1ccccc1F)c1cc(Cl)ccc1-2
1.1

* * *

- Test system: mice
- EXPERIMENT NOTES: rotating rod test in mice (sedative/muscle relaxant properties), i.v.
- Format: in vivo, mouse
- APPLIED CONDITIONS: Mus musculus, iv, 2 min, minimum time 10 sec, 2 min after administration
MEASUREMENT NAME: ED50

Illustrative cases are given below, each with its answer.
1. O=[N+]([O-])c1ccc2c(c1)C(c1ccccc1F)=NCc1nc(CO)cn1-2
0.3 mg/kg
2. OCc1cn2c(n1)CN=C(c1ccccc1Cl)c1cc(Cl)ccc1-2
3.2 mg/kg
3. C=CCNCc1c(CO)nc2n1-c1ccc(Cl)cc1C(c1ccccc1F)=NC2
3.2 mg/kg

Hello, I am looking for reported ED50 with mice for OCc1cn2c(n1)CN=C(c1ccccn1)c1cc(Br)ccc1-2 . Could you help?
> 10 mg/kg

Thanks! And OCc1cn2c(n1)CN=C(c1ccccc1F)c1cc(I)ccc1-2 ?
0.1 mg/kg

Also check OCc1cn2c(n1)CN=C(c1ccccc1)c1cc(C(F)(F)F)ccc1-2
> 3.2 mg/kg

Please give the result for CC(=O)OCc1cn2c(n1)CN=C(c1ccccc1F)c1cc(Cl)sc1-2 too.
1 mg/kg

Same again, this time with OCc1cn2c(n1)CN=C(c1ccccc1F)c1cc(Cl)ccc1-2
≥ 10 mg/kg

* * *

- MEASURED ON: central benzodiazepine receptors
- EXPERIMENT NOTES: inhibition of the binding of tritiated flumazenil to the specific benzodiazepine receptors in the cortex of rats
- APPLIED CONDITIONS: 50% inhibition of specific binding of tritiated flumazenil, rat cortex; read-out: Affinity to benzodiazepine receptors IC50
MEASUREMENT NAME: pIC50
Entry type: numeric. Quantity: pIC50, the -log10 of concentration in molar units.

Here are 6 compounds together with their reported answers.
1) OCc1cn2c(n1)CN=C(c1ccccn1)c1cc(Br)ccc1-2
7.40
2) OCc1cn2c(n1)CN=C(c1ccccc1F)c1cc(Cl)ccc1-2
8.77
3) C=CCNCc1c(CO)nc2n1-c1ccc(Cl)cc1C(c1ccccc1F)=NC2
8.25
4) O=[N+]([O-])c1ccc2c(c1)C(c1ccccc1F)=NCc1nc(CO)cn1-2
8.64
5) OCc1cn2c(n1)CN=C(c1ccccc1)c1cc(C(F)(F)F)ccc1-2
7.92
6) CC(=O)OCc1cn2c(n1)CN=C(c1ccccc1F)c1cc(Cl)sc1-2
8.22

Observed pIC50 on central benzodiazepine receptors for OCc1cn2c(n1)CN=C(c1ccccc1Cl)c1cc(Cl)ccc1-2 , please.
8.92

Same for OCc1cn2c(n1)CN=C(c1ccccc1F)c1cc(I)ccc1-2
8.68
